- ASSAY EXPLANATION: RP, Merck Supelco Ascentis Express C18, 100 × 2.1 mm, 2 µm, 40 °C, 0.35 mL/min, estimated dead time 0.63 min; A: water + 0.1% formic acid, pH 3; B: acetonitrile + 0.1% formic acid, pH 3; gradient (min/%B) 0/5 2/5 17/99.9 20/99.9
- PARTICULARS: stereoisomer not certain
ATTRIBUTE MEASURED: LC retention time (min)

Below, each entry is followed by its recorded LC retention time result.
# MOLECULE, OBSERVED RESULT
records = [
    ("CC(C(=O)O)C(=O)O [METHYLMALONATE]", 0.957),
    ("CCCCCCCCC=CCCCCCCCCCCCC(=O)O [ERUCATE]", 18.2),
    ("NC(Cc1c[nH]c2ccc(O)cc12)C(=O)O (stereo not given) [5-HYDROXYTRYPTOPHAN]", 0.993),
    ("CCC(C)C(N)C(=O)O (stereo not given) [ISOLEUCINE]", 0.793),
    ("Nc1ccc(C(=O)O)cc1 [4-AMINOBENZOATE]", 4.3),
    ("O=C(O)CCCCC1SCC2NC(=O)NC21 (stereo not given) [BIOTIN]", 4.34),
    ("O=C(O)Cc1cc(O)ccc1O [HOMOGENTISATE]", 1.35),
    ("O=c1[nH]cnc2c1ncn2C1OC(CO)C(O)C1O (stereo not given) [INOSINE]", 0.76),
    ("Nc1nc2ncc(CNc3ccc(C(=O)NC(CCC(=O)O)C(=O)O)cc3)nc2c(=O)[nH]1 (stereo not given) [FOLATE]", 3.76),
    ("CC(C)(CO)C(O)C(=O)NCCC(=O)O (stereo not given) [PANTOTHENATE]", 1.56),
]

[A] CCCCCCCCC=CCCCCCCCC(=O)OCC(O)CO (stereo not given) [OLEOYL-GLYCEROL]
[B] O=C(O)c1cccc(O)c1O [2,3-DIHYDROXYBENZOATE]
Query :: Select one: A or B . Criterion: greater recorded LC retention time. // output: label of the selected item
Result :: A
(A: 15.5 min, B: 3.88 min)

====

- ASSAY EXPLANATION: RP, Merck Supelco Ascentis Express C18, 100 × 2.1 mm, 2 µm, 40 °C, 0.2 mL/min, estimated dead time 1.1 min; A: water + 0.1% formic acid, pH 3; B: acetonitrile + 0.1% formic acid, pH 3; gradient (min/%B) 0/5 2/5 17/99.9 20/99.9
- PARTICULARS: stereoisomer not certain
ATTRIBUTE MEASURED: LC retention time (min)

Below, each entry is followed by its recorded LC retention time result.
# COMPOUND, OBSERVED RESULT
records = [
    ("O=C(O)CCCCCC(=O)O [6-CARBOXYHEXANOATE]", 5.14),
    ("CSCCC(O)C(=O)O (centres undefined) [2-HYDROXY-4-(METHYLTHIO)BUTANOATE]", 3.75),
    ("O=c1[nH]cnc2c1ncn2C1OC(CO)C(O)C1O (centres undefined) [INOSINE]", 1.37),
    ("O=C(O)c1cccnc1C(=O)O [QUINOLINATE]", 1.38),
    ("O=C(O)Cc1ccc(O)cc1 [P-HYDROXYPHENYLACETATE]", 5),
]

[I] NC(Cc1cc(I)c(Oc2cc(I)c(O)c(I)c2)c(I)c1)C(=O)O (centres undefined) [THYROXINE]
[II] NCC(=O)CCC(=O)O [5-AMINOLEVULINATE]
Query :: For the pair I and II , which entry has the numerically smaller recorded LC retention time? // output: label of the selected item
Result :: II
(II: 1.51 min, I: 8.88 min)

[a] COc1ccc2[nH]cc(CCNC(C)=O)c2c1 [MELATONIN]
[b] OCC(O)c1ccc(O)c(O)c1 (centres undefined) [3,4-DIHYDROXYPHENYLGLYCOL]
[c] CC(CC(=O)O)CC(=O)O [METHYGLUTARATE]
Query :: Please put the entries in order of rising LC retention time. Response field: labels, in requested order.
Result :: b, c, a
(b: 1.39 min, c: 3.82 min, a: 7.01 min)

[a] NC(Cc1cc(I)c(Oc2ccc(O)c(I)c2)c(I)c1)C(=O)O (centres undefined) [LIOTHYRONINE]
[b] Nc1nc2nc[nH]c2c(=O)[nH]1 [GUANINE]
[c] COc1cc(CC(=O)O)ccc1O [HOMOVANILLATE]
Query :: Sort these compounds on LC retention time so the largest reading comes first. Response field: labels, in requested order.
Result :: a, c, b
(a: 8.2 min, c: 5.43 min, b: 1.37 min)

[1] CC(C(=O)O)C(=O)O [METHYLMALONATE]
[2] O=C(O)c1cc(=O)c2ccccc2[nH]1 [KYNURENATE]
Query :: For the pair 1 and 2 , which entry has the numerically smaller recorded LC retention time? // output: label of the selected item
Result :: 1
(1: 1.71 min, 2: 4.53 min)

[P] Cc1ncc(CO)c(C(=O)O)c1O [4-PYRIDOXATE]
[Q] O=C(O)CCCCCCCCC(=O)O [SEBACATE]
[R] Cc1cc2nc3c(=O)[nH]c(=O)nc-3n(CC(O)C(O)C(O)COP(=O)(O)OP(=O)(O)OCC3OC(n4cnc5c(N)ncnc54)C(O)C3O)c2cc1C (centres undefined) [FAD]
Query :: Sort these compounds on LC retention time so the largest reading comes first. Response field: labels, in requested order.
Result :: Q, R, P
(Q: 7.81 min, R: 4.67 min, P: 1.57 min)

[P] O=C(O)C(O)c1ccc(O)c(O)c1 (centres undefined) [3,4 DIHYDROXYMANDELATE]
[Q] CC(=O)c1ccc(O)cc1O [2',4'-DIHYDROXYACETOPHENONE]
Query :: Select one: P or Q . Criterion: greater recorded LC retention time. // output: label of the selected item
Result :: Q
(Q: 7.01 min, P: 1.41 min)

[A] Nc1ccccc1S(=O)(=O)O [ANILINE-2-SULFONATE]
[B] N[C@@H](Cc1cc(I)c(Oc2ccc(O)cc2)c(I)c1)C(=O)O [3,5-DIIODO-L-THYRONINE]
Query :: For the pair A and B , which entry has the numerically smaller recorded LC retention time? // output: label of the selected item
Result :: A
(A: 1.74 min, B: 7.21 min)
